Where do the numbers come from? From patent US20210238260.

molecular target: Factor X, P00742
Sequence (P00742 whole entry, looked up): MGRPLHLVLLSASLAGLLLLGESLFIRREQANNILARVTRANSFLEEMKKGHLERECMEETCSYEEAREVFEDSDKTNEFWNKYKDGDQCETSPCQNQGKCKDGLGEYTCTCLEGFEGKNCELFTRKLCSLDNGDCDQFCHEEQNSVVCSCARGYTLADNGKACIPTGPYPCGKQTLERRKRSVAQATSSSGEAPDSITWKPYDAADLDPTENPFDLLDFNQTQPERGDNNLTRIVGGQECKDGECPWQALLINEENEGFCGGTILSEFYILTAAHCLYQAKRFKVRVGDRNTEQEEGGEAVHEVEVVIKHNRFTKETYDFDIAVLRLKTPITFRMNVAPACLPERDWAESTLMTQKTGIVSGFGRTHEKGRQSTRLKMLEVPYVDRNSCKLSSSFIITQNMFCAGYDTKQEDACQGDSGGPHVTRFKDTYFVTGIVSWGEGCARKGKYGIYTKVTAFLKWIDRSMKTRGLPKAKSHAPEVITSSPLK
// % of WT kcat/KM lookup, one value per entry
The reply should contain only the number, in %.

Consider the reported % of WT kcat/KM for these proteins:
FIXa-R318Y/R338E/T343R/R403E/E410N (protein) chain 1: YNSGKLEEFVQGNLERECMEEKCSFEEAREVFENTERTTEFWKQYVDGDQCESNPCLNGGSCKDDINSYECWCPFGFEGKNCELDVTCNIKNGRCEQFCKNSADNKVVCSCTEGYRLAENQKSCEPAVPFPCGRVSVSQTSKLTR chain 2: VVGGEDAKPGQFPWQVVLNGKVDAFCGGSIVNEKWIVTAAHCVETGVKITVVAGEHNIEETEHTEQKRNVIRIIPHHNYNAAINKYNHDIALLELDEPLVLNSYVTPICIADKEYTNIFLKFGSGYVSGWGRVFHKGYSALVLQYLRVPLVDRATCLESTKFRIYNNMFCAGFHEGGRDSCQGDSGGPHVTEVEGTSFLTGIISWGEECAMKGKYGIYTKVSEYVNWIKNKTKLT: 1217
FIXa-R338E/T343R/R403E (protein) chain 1: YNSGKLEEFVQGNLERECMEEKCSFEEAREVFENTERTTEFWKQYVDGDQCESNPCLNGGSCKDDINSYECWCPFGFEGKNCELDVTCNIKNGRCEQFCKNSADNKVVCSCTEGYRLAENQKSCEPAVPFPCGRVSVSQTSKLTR chain 2: VVGGEDAKPGQFPWQVVLNGKVDAFCGGSIVNEKWIVTAAHCVETGVKITVVAGEHNIEETEHTEQKRNVIRIIPHHNYNAAINKYNHDIALLELDEPLVLNSYVTPICIADKEYTNIFLKFGSGYVSGWGRVFHKGRSALVLQYLRVPLVDRATCLESTKFRIYNNMFCAGFHEGGRDSCQGDSGGPHVTEVEGTSFLTGIISWGEECAMKGKYGIYTKVSEYVNWIKEKTKLT: 663
FIXa-Y155F/K228N/R318Y/R338E/R403E/E410N (protein) chain 1: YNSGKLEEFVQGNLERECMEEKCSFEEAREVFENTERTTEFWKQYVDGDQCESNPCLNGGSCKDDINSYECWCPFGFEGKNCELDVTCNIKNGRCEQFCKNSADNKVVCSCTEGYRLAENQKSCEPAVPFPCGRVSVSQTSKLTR chain 2: VVGGEDAKPGQFPWQVVLNGKVDAFCGGSIVNEKWIVTAAHCVETGVNITVVAGEHNIEETEHTEQKRNVIRIIPHHNYNAAINKYNHDIALLELDEPLVLNSYVTPICIADKEYTNIFLKFGSGYVSGWGRVFHKGYSALVLQYLRVPLVDRATCLESTKFTIYNNMFCAGFHEGGRDSCQGDSGGPHVTEVEGTSFLTGIISWGEECAMKGKYGIYTKVSEYVNWIKNKTKLT: 453

Could you now consider this next protein?
I have this protein here, FIXa Y155F/K247N/N249S/N260S/R318Y/R338E/R403E/E410N (protein) chain 1: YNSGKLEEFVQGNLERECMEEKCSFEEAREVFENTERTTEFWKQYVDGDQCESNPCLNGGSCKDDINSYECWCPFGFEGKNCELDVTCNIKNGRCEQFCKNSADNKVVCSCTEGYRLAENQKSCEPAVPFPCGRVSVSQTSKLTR chain 2: VVGGEDAKPGQFPWQVVLNGKVDAFCGGSIVNEKWIVTAAHCVETGVKITVVAGEHNIEETEHTEQNRSVIRIIPHHNYSAAINKYNHDIALLELDEPLVLNSYVTPICIADKEYTNIFLKFGSGYVSGWGRVFHKGYSALVLQYLRVPLVDRATCLESTKFTIYNNMFCAGFHEGGRDSCQGDSGGPHVTEVEGTSFLTGIISWGEECAMKGKYGIYTKVSEYVNWIKNKTKLT , and I need its recorded % of WT kcat/KM. 124
